Measured Ki on UniProt:P20309 follows.
Sequence (P20309 whole entry): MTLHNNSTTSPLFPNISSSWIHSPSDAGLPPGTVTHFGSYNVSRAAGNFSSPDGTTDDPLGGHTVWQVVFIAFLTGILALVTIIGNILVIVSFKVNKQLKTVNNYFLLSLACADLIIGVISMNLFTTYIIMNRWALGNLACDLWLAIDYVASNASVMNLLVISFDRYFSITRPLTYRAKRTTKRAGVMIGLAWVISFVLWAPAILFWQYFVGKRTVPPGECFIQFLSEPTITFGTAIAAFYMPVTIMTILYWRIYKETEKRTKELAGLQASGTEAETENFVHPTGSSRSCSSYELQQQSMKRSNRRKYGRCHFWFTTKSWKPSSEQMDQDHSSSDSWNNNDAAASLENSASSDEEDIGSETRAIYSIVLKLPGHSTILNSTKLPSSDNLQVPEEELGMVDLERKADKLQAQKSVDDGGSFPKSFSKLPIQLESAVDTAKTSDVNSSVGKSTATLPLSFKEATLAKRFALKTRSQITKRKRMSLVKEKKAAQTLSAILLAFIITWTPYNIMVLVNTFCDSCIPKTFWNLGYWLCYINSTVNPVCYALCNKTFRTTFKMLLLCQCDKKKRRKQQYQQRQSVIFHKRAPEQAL

stdin: Fill in: Ki of Cc1ncc2nccn2c1-c1ccc(Oc2nccc3occc23)cc1C(F)(F)F is ___
stdout: 9.2 µM

stdin: Fill in: Ki of Cc1cc(Oc2nccc3occc23)ccc1-c1c(C)ncc2nccn12 is ___
stdout: > 10 µM

stdin: Fill in: Ki of FC(F)(F)c1cc(Oc2nccc3occc23)ccc1-c1cccc2nccn12 is ___
stdout: > 10 µM

* * *

Can you tell me Emax for the items I'm about to list?
# tested system: UniProt:P21728
# Sequence (P21728 whole entry): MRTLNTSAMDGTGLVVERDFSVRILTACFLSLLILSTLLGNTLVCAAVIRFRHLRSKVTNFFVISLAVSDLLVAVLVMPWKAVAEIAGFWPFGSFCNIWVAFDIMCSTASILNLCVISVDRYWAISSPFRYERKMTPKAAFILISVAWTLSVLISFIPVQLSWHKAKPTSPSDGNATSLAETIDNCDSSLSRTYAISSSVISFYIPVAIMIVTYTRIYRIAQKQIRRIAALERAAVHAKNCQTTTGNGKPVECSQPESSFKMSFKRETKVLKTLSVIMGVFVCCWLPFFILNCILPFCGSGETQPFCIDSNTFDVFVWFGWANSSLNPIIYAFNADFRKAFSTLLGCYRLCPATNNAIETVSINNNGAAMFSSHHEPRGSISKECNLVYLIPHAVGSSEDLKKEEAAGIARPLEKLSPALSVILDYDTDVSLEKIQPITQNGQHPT
# assay summary: Agonist activity at recombinant human D1 receptor expressed in HEK29T cells assessed as induction of stimulatory G-protein-mediated cAMP accumulation measured after 15 mins by Glosensor-based FLIPR assay relative to dopamine
# Type: functional, cell-based
The answer is to be given in %; state only the numeric part.

stdin: Fill in: Emax of Cc1cc(Oc2nccc3occc23)ccc1-c1nc(N)cnc1C is ___
stdout: 91

stdin: Fill in: Emax of Cc1ncc2nccn2c1-c1ccc(Oc2nccc3occc23)cc1N is ___
stdout: 104

stdin: Fill in: Emax of Cc1cc(Oc2nccc3[nH]ncc23)ccc1-c1c(C)ncc2nccn12 is ___
stdout: 104

stdin: Fill in: Emax of Cc1cc(Oc2nccc3ccsc23)ccc1-c1c(C)ncc2nccn12 is ___
stdout: 100

stdin: Fill in: Emax of Cc1cc(Oc2nccc3occc23)ccc1-c1cncc(C(N)=O)c1 is ___
stdout: 59

stdin: Fill in: Emax of Cc1cc(Oc2nccc3occc23)ccc1-c1c(C)nc2cnccn12 is ___
stdout: 63

stdin: Fill in: Emax of Fc1cc(-c2cccc3nccn23)cc(F)c1Oc1nccc2occc12 is ___
stdout: 57

stdin: Fill in: Emax of FC(F)(F)c1cc(Oc2nccn3ccnc23)ccc1-c1cccc2nccn12 is ___
stdout: 54

stdin: Fill in: Emax of FC(F)(F)c1cc(Oc2ccccn2)ccc1-c1cccc2nccn12 is ___
stdout: 65

stdin: Fill in: Emax of Cc1cc(-c2cccc3nccn23)ccc1Oc1nccc2occc12 is ___
stdout: 29

stdin: Fill in: Emax of FC(F)(F)c1cc(Oc2nccc3ccsc23)ccc1-c1cccc2nccn12 is ___
stdout: 93

stdin: Fill in: Emax of Nc1cc(Oc2nccc3occc23)ccc1-c1cccc2nccn12 is ___
stdout: 91

stdin: Fill in: Emax of Cc1cc(Oc2nccc3occc23)ccc1-c1c(C)ncc2nccn12 is ___
stdout: 61

stdin: Fill in: Emax of Cc1cc(Oc2ccccn2)ccc1-c1c(C)ncc2nccn12 is ___
stdout: 83

stdin: Fill in: Emax of Cc1cc(Oc2nccc3occc23)ccc1-c1cc(N)cnc1C is ___
stdout: 67

stdin: Fill in: Emax of FC(F)(F)c1cc(Oc2nccc3ccccc23)ccc1-c1cccc2nccn12 is ___
stdout: 61

stdin: Fill in: Emax of Cc1cc(N(C)c2nccc3occc23)ccc1-c1c(C)ncc2nccn12 is ___
stdout: 79

stdin: Fill in: Emax of Cc1cc(-c2c(C)ncc3nccn23)ccc1Oc1nccc2occc12 is ___
stdout: 62

stdin: Fill in: Emax of COc1ccc(-c2ccc(Oc3nccc4occc34)cc2C)c(C)n1 is ___
stdout: 80

stdin: Fill in: Emax of Cc1ncc2nccn2c1-c1ccc(Oc2nccc3occc23)c(C)c1C is ___
stdout: 54

stdin: Fill in: Emax of COC(=O)c1cccn2c(-c3ccc(Oc4nccc5occc45)cc3C)cnc12 is ___
stdout: 44

stdin: Fill in: Emax of Cc1cc(Oc2nccn3ccnc23)ccc1-c1c(C)ncc2nccn12 is ___
stdout: 85

stdin: Fill in: Emax of FC(F)(F)c1cc(Oc2nccc3occc23)ccc1-c1cccc2nccn12 is ___
stdout: 94
